test system: Salmonella enteritidis; test: Antimicrobial activity against ramA::aph-deficient ciprofloxacin-resistant Salmonella enterica serovar enteritidis isolate 5408-cip harboring gyrA D87Y, gyrB E466D, parE V461G mutant gene by Etest; assay type: functional, Salmonella enterica subsp. enterica serovar Enteritidis
readout-kind: MIC (µg/mL)

>>> df
                            chemical_smiles  value_prefix  reading
0  O=C(O)c1cn(C2CC2)c2cc(N3CCNCC3)c(F)cc2c1=O             =        4
1  CN(C)[C@@H]1C(O)=C(C(N)=O)C(=O)[C@@]2(O)C(O)=C3C(=O)c4c(O)cccc4[C@@](C)(O)[C@H]3C[C@@H]12             =        1
2  O=C(N[C@H](CO)[C@H](O)c1ccc([N+](=O)[O-])cc1)C(Cl)Cl             =        3
3           CCn1cc(C(=O)O)c(=O)c2ccc(C)nc21             >      256
4  CC1(C)S[C@@H]2[C@H](NC(=O)[C@H](N)c3ccccc3)C(=O)N2[C@H]1C(=O)O             =        1
